A collection of compounds and their measured logP

compound | logP
CCCCCC(=O)OC | 2.42
CC(C)CBr | 2.53
CC(C)Br | 2.1
CCCCCCI | 4.16
CCC(=O)OC(C)C | 1.57
CCCCCCCCCl | 4.73
CCCC(C)(C)O | 1.53
C=CCC=CC | 3.16
CCCCCCCCCCBr | 6
CC(=O)OC(C)C | 1.02
C#CCC | 1.46
CCCC(=O)CCC | 2.04
CCOC(=O)C(C)C | 1.55
CCCCCCl | 3.11
ClCC(Cl)(Cl)Cl | 2.66
CCCCCCCCCCc1ccccc1 | 7.4
CCCCCCCCC(=O)OC | 3.87
CCCCC(=O)CCCC | 2.88
CCN1CCCCC1 | 1.88
CCCOC(=O)CC | 1.71
OC1CCCCCCC1 | 2.39
CCC(C)(C)c1ccc(O)cc1 | 3.83
CCC(C)(C)CC | 5.19
CCCOC(=O)CCC | 2.15
CC(C)CCl | 2.39
CCCCF | 2
C#CCCCCCCC | 4.51
CCCCCI | 3.62
CCCCC(=O)OCC | 2.3
CC(C)C(C)(C)O | 1.48
CCCI | 2.54
OC1CCCCCC1 | 1.83
CC1CCCO1 (stereo not drawn) | 1.25

Just for reference, the SangsterLogP compilation is where these values come from.
